Biological target: Sonic hedgehog protein (Homo sapiens, UniProt Q15465)
Sequence (Q15465 24-197 limits assumed): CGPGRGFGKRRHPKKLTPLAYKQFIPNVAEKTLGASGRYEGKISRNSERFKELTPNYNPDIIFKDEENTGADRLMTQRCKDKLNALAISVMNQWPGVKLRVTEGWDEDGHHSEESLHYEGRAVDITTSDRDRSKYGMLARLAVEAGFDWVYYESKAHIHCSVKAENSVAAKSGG
Experiment: Inhibition of human SHH pathway in mouse S12 cells assessed as GLI-mediated transcriptional activity after 48 hrs by luciferase reporter gene assay in presence of 0.5 mg/mL human alpha-1-acid glycoprotein
property: pIC50
As a rule, pIC50 stands for the negative log10 of the concentration, concentration in M.

Task: # return pIC50 for CS(=O)(=O)c1ccc(C(=O)Nc2ccc(Cl)c(-c3ccccn3)c2)c(Cl)c1 , test system: Sonic hedgehog protein (Homo sapiens, UniProt Q15465)
Output: 5.76

Hello, the source for this data is BindingDB's records for doi:10.1021/jm1008924, in case you need it.
